# Test system: third stage larvae of Haemonchus contortus
# measurement_notes: Haemonchus contortus, Larvae Stage 3 (HcL3) In Vitro Assay
# Assay type: cell-based
# assay_setup: Haemonchus contortus, 96 h, read-out: HcL3 MED, Minimum Effective Dose, H. contortus third stage larvae, approximately 96 hours
Recorded measurements of minimal effective concentration, one per entry

Exercise: Give third stage larvae of Haemonchus contortus minimal effective concentration for CC(C)C[C@H]1C(=O)O[C@H](Cc2ccc([C@@H](c3ccc(OC(F)(F)F)cc3)N3CCOCC3)cc2)C(=O)N(C)[C@@H](CC(C)C)C(=O)O[C@H](C)C(=O)N(C)[C@@H](CC(C)C)C(=O)O[C@H](Cc2ccccc2)C(=O)N(C)[C@@H](CC(C)C)C(=O)O[C@@H](C)C(=O)N1C [Example 2-42]
Solution: > 10 µM

Others:
Exercise: Give third stage larvae of Haemonchus contortus minimal effective concentration for Cc1ccc(Cc2ccc(C[C@H]3OC(=O)[C@H](CC(C)C)N(C)C(=O)[C@@H](C)OC(=O)[C@H](CC(C)C)N(C)C(=O)[C@@H](Cc4ccc(Cc5ccc(C)o5)cc4)OC(=O)[C@H](CC(C)C)N(C)C(=O)[C@@H](C)OC(=O)[C@H](CC(C)C)N(C)C3=O)cc2)o1 [Example 3-157]
Solution: > 100 µM

Exercise: Give third stage larvae of Haemonchus contortus minimal effective concentration for COc1cnc(C(C)(F)c2ccc(C[C@H]3OC(=O)[C@H](CC(C)C)N(C)C(=O)[C@@H](C)OC(=O)[C@H](CC(C)C)N(C)C(=O)[C@@H](Cc4ccc(C(C)(F)c5cnc(OC)cn5)cc4)OC(=O)[C@H](CC(C)C)N(C)C(=O)[C@@H](C)OC(=O)[C@H](CC(C)C)N(C)C3=O)cc2)cn1 (stereo partly shown) [Example 3-252]
Solution: > 42 µM

Exercise: Give third stage larvae of Haemonchus contortus minimal effective concentration for COc1nc(C)c(Cc2ccc(C[C@H]3OC(=O)[C@H](CC(C)C)N(C)C(=O)[C@@H](C)OC(=O)[C@H](CC(C)C)N(C)C(=O)[C@@H](Cc4ccc(Cc5sc(OC)nc5C)cc4)OC(=O)[C@H](CC(C)C)N(C)C(=O)[C@@H](C)OC(=O)[C@H](CC(C)C)N(C)C3=O)cc2)s1 [Example 3-209]
Solution: > 100 µM
